src = PubChem BioAssay

# measurement target: Cellular tumor antigen p53 (Homo sapiens) (UniProt P04637)
# Sequence (P04637 whole entry, looked up): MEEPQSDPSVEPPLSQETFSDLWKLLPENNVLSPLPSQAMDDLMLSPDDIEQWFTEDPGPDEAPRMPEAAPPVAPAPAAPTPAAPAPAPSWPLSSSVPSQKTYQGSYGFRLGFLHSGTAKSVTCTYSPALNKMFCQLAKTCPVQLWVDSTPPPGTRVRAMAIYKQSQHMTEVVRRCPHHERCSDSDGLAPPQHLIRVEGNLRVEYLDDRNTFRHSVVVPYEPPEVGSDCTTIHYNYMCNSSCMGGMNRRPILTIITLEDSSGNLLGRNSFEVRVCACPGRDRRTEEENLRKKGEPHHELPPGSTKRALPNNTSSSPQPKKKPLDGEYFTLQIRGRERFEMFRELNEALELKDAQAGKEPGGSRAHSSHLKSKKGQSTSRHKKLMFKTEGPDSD
# assay explanation: kinase inhibitors altering GFP-p53 stability in HPV16-positive cells, imaging, known kinase inhibitor set, EGFP/DsRed ratio (AID 1053116);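 note: test concentration not given here; cells exposed to compounds for 24 h at 37 °C before reading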
# condition details: stronger effect = higher value; measured here: GFP-p53 positive objects count
measurement kind: EGFP object count
API note: the answer field is a bare number with no unit suffix.

Below, 4 compounds whose answers are already recorded.
>>> assay_value("O=C1NC(=NCc2cccs2)OC1=Cc1ccc2ncccc2c1")
3.5
>>> assay_value("CC1=C(C(=O)Nc2ccc3[nH]ncc3c2)C(c2ccc(F)cc2)N=C(c2ccc(C(F)(F)F)nc2)N1 (stereo not given)")
2
>>> assay_value("Nc1c(C(=O)c2ccc(CCCN3CCOCC3)cc2)cnn1-c1ccc(F)cc1")
2
>>> assay_value("Nc1c(C(=O)c2cccc(C(O)(CO)CO)c2)cnn1-c1ccc(F)cc1")
3

Then this compound:
Entry under test: Fc1ccc(-c2c(-c3ccncc3)n(CCN3CCOCC3)c3cccnc23)cc1 . Its EGFP object count was 1.5
